Please go through the items and note down their viability at 1 µM.
Test system: expanded OPCs
Assay: cells
Settings: Rattus norvegicus, 72 h, read-out: 1 µM (% DMSO), alamarBlue viability of expanded OPCs, compound at 1 µM, sheet All Tox data
Description: Having established a consistent assay for measuring OL differentiation in vitro, the next step was to utilize this assay to assess the ability of a wide array of compounds to promote OL differentiation. Prior to library screening, we first established the maximum non-toxic dose of each compound in the library. […] Three days later, we assessed viability of the treated cells by measuring AlamarBlue fluorescence, a measure of cell viability (see “Methods” section). […]
Just the number plus its unit, please.

Enquiry: Name the reported viability at 1 µM value associated with the compound COc1cc(/C=C/c2ccc(O)cc2)cc(OC)c1 [Pterostilbene]
Return: 62.5%

Enquiry: Name the reported viability at 1 µM value associated with the compound CC(C)(O)[C@@H]1[C@H]2OC(=O)[C@@H]1[C@]1(O)C[C@H]3O[C@]34C(=O)O[C@H]2[C@]14C [Picrotin]
Return: 84.6%

Enquiry: Name the reported viability at 1 µM value associated with the compound CN(CCCN1c2ccccc2CCc2ccccc21)CC(=O)c1ccc(Cl)cc1 [Lofepramine]
Return: 79.6%

Enquiry: Name the reported viability at 1 µM value associated with the compound CN1CCN(CCCN2c3ccccc3Sc3ccc(Cl)cc32)CC1 [Prochlorperazine, reference compound]
Return: 107%

Enquiry: Name the reported viability at 1 µM value associated with the compound O=C1CCc2ccc(OCCCCN3CCN(c4cccc(Cl)c4Cl)CC3)cc2N1 [Aripiprazole]
Return: 86.5%

Enquiry: Name the reported viability at 1 µM value associated with the compound CC(=O)CCCCn1c(=O)c2c(ncn2C)n(C)c1=O [Pentoxifylline]
Return: 101%

Enquiry: Name the reported viability at 1 µM value associated with the compound CCC(C(N)=O)N1CCCC1=O (centres unmarked) [Etiracetam]
Return: 90.6%

Enquiry: Name the reported viability at 1 µM value associated with the compound Nc1nc(N)nc(-c2cc(Cl)ccc2Cl)n1 [Irsogladine]
Return: 92.7%

Enquiry: Name the reported viability at 1 µM value associated with the compound Cc1ncc([N+](=O)[O-])n1CC(C)O (centres unmarked) [Secnidazole]
Return: 99.6%

Enquiry: Name the reported viability at 1 µM value associated with the compound CNC(=O)Oc1ccc2c(c1)[C@]1(C)CCN(C)[C@@H]1N2C [Physostigmine]
Return: 96.7%

Enquiry: Name the reported viability at 1 µM value associated with the compound N=C(N)NC(=O)c1nc(Cl)c(N)nc1N [Amiloride]
Return: 83.7%

---

Please go through the items and note down their 1 µM (% DMSO).
Tested on: expanded OPCs
Experiment: cells
Settings: alamarBlue viability of expanded OPCs, compound at 1 µM, relative to DMSO control
Description: Having established a consistent assay for measuring OL differentiation in vitro, the next step was to utilize this assay to assess the ability of a wide array of compounds to promote OL differentiation. Prior to library screening, we first established the maximum non-toxic dose of each compound in the library. […] Three days later, we assessed viability of the treated cells by measuring AlamarBlue fluorescence, a measure of cell viability (see “Methods” section). […]

Enquiry: Name the reported 1 µM (% DMSO) value associated with the molecule COc1ccccc1OCC(O)COC(N)=O (stereo not shown)
Return: 92.3 % DMSO

Enquiry: Name the reported 1 µM (% DMSO) value associated with the molecule CN(C)c1ccc(O)c2c1C[C@H]1C[C@H]3[C@H](N(C)C)C(O)=C(C(N)=O)C(=O)[C@@]3(O)C(O)=C1C2=O
Return: 90.9 % DMSO

Enquiry: Name the reported 1 µM (% DMSO) value associated with the molecule OC(Cn1cncn1)(Cn1cncn1)c1ccc(F)cc1F
Return: 88.1 % DMSO

Enquiry: Name the reported 1 µM (% DMSO) value associated with the molecule Cn1cnc([N+](=O)[O-])c1Sc1ncnc2nc[nH]c12
Return: 91.6 % DMSO

Enquiry: Name the reported 1 µM (% DMSO) value associated with the molecule COc1cc(Cc2cnc(N)nc2N)cc(OC)c1OC
Return: 89.7 % DMSO

Enquiry: Name the reported 1 µM (% DMSO) value associated with the molecule CC(C(=O)O)c1cccc(C(=O)c2ccccc2)c1 (stereo not shown)
Return: 89.7 % DMSO

Enquiry: Name the reported 1 µM (% DMSO) value associated with the molecule CC(=O)/N=c1/sc(S(N)(=O)=O)nn1C [Methazolamide]
Return: 92.5 % DMSO
